All values here come from the nanobody polyreactivity screen of Harvey et al. (2022).

test: yeast display, Sf9 membrane polyspecificity reagent, FACS + sequencing; frameworks hold sequencing errors
MEASUREMENT_TYPE: polyreactivity (PSR sort gate)

>>> endpoint_value("QVQLVESGGGLVQAGGSLRLSCAASGSTFSRYAMGWYRQAPGKERELVAAISSSGGSTYYADSVKGRFTISRDTAKNTVYLQMNSLKPEDTAVYYCAVSHKYYGRRDYWGQGTQVTVSS")
"high polyreactivity"
>>> endpoint_value("QVQLVESGGGLVQAGGSLRLSCAASGRPFWQYAMGWKRQGPGKERELVAAITSSGGSTYDADSVKGRITISRDNAKNTVYLQMNCLKPEDTAVYYCADDTRYYRYYYWGQGTQVTVSS")
"high polyreactivity"

###

experiment: yeast display, Sf9 membrane polyspecificity reagent, FACS + sequencing; frameworks hold sequencing errors
MEASUREMENT_TYPE: polyreactivity (PSR sort gate)

>>> endpoint_value("QVQLVESGGGLVQAGGSLRLSCAASGLTFIIYAMGWYRQAPGKERELVARISSGGRTNYADSVKGRFTISRDYAKNTVYIQMNSLTPEDTAVYYCAAAFVYPYRHYYRYDYWGQATQVTVSS")
"high polyreactivity"
>>> endpoint_value("QVQLVESGGGLVQAGGSLRLSCAAYGSTLATNAMGWYRPAPGKERELVAYADSVKGRFTISRDNAKNTVYLQMNSLKPEDTAVYYCAKDALVIDGGGGYDYWGQGTQVTVSS")
"low polyreactivity"
>>> endpoint_value("QVQLVESGGGLVQAGGSLRLSCAASGSTFYYYAMGWYRQAPGKERELVAAITISGGSTYADSVKGRFTISRDNAKNTVYLQMNSLKPEDTALYYCAAYSGVGYLWFDYWGQGTQVTVSS")
"low polyreactivity"
>>> endpoint_value("QVQLVESGGGLVQAGGSLRLSCAATGFIFERNAMGWYRQAPGKERELVAVISYSGGRTYYADSVKGRFTISRDNANNTVYLQMNSLKPEDTAVYYCAATIVKYGYHYDYWGQGTQVTVSS")
"high polyreactivity"
>>> endpoint_value("QVQLVESGGGLVQAGGSLRLSCAATGSIFSRYAMGWYRQAPGKERELVAAISWRGGGTYYADSVKGRFTISRDNAKNTVYLQMNSLKPVDTAVYYCAADDTPDDSDYWGQGTQVTVSS")
"low polyreactivity"
>>> endpoint_value("QVQLVESGGGLVQAGGSLRLSCAASGSIFRAYAMGWYRQAPGKERELVAAISWGGGSTSYADSVKGRFTISRDNAKNTVYLQMNSLKPEDTAVYFCNKVSFSKRRDYYWGQGTQVTVSS")
"high polyreactivity"
>>> endpoint_value("QVQLVESGGGLVQAGGSLRLSCAASGRTFPLNAMGWYRQAPGKERELVASITKSTGNTRYADSVKGRFTISRDNAKNTVYLQMNSLKPEDTAVYYCAARSYRDRYYWGQGTQVTVSS")
"high polyreactivity"
>>> endpoint_value("QVQLVESGGGLVQAGGSLRLSCAASGRTFYEYAMGWYRQAPGKESELVASIRSGGSTFYADSVKGRFTISRDNAKYTVYLQMNSLKPEDTAVYYCAAYRVPPYRYRFARVNYWGQGTQVTVSS")
"high polyreactivity"
>>> endpoint_value("QVQLVESGGGLVQAGGSLRLSCAASGRTFRPYAMGWYRPAPGKERELVAAITGGTRTYYADSVKGRFTISRDNAKNTVYLQMNSLKPEDTAVYYCAKGDFFSKHDYWGQGTQVTVSS")
"low polyreactivity"
>>> endpoint_value("QVQLVESGGGLVQAGGSLRLSCAASGLIFRQYPMGWYRQAPGKERELVAAITGSGGRTYYADSVKGRFTISRDNAKNTVYLQMNSLKPEDTAVYYCARPNLLSGDYWGQGTQVTVSS")
"high polyreactivity"
>>> endpoint_value("QVRHVESGGGLVQAGGSLRLSCAASGGIFTTYAVGWYREAPGKEWELVARINSRGGRTYYADSVKGRFTISRDNAKYTVYLQMISLKPEDTGVYYCAVRNPRYFNEYDYWGQGTQVTVSS")
"low polyreactivity"
>>> endpoint_value("QLQLVESRGGLVQAGGSLRVSCAASGRISQIYAMGWSRQAPGKERELVARITSTDSTYYADSVKGRFTISRDNAKNTVYLQMNSLKPEDTAVYYCAASWWSPYDYWGQGTQVTVSS")
"low polyreactivity"
>>> endpoint_value("QVQLVESGGGLVQAGGSLRLSCAASGSTLARYTMGWYRQAPGKERELVATIDFGGVNTYYADSVKGRFTISRDTAKNTVYLQMNSLKPEDTAVYYCAAYNRLKRNVLYDYWGQGTQVTVSS")
"low polyreactivity"
>>> endpoint_value("QVQLVESGGGLVQAGGSLRLSCAASGFIFRRYAMGWYRQAPGKDRALVAAITIGGSTSYADSVKGRFTISRDNAKKTVYVQMNSLKPEDTAVYYCNAGSFSRKARRYDYWGQGTQVTVSS")
"high polyreactivity"
